The measured values listed here are drawn from patent US6337417B1.

Overview of reported Injury of Paddy across a group of compounds:
- Tested on: paddy rice
- assayText: Experiment 1 flooded soil treatment: injury to paddy rice
- Type: in vivo
- details: 25 g/10a, 4 weeks after treatment
- Procedure: Paddy soil (clay loam) was put into a pot so as to have a surface area of 1/15500 ares. […] After that, the pots were kept in a glass chamber to allow the paddy rice and the weeds to grow, and after the lapse of 4 weeks from the treatment with the selected compounds, the herbicidal effects and the degree of injury to the paddy rice were evaluated. […]
When you answer, write just the number.

Examples from the recorded data:
{"columns": ["compound", "Injury of Paddy"],
 "data": [
  ["CCCOC(=O)C1=C(C(=O)N(C(C)=O)c2cc(SCC(=O)OC)c(Cl)cc2F)CCCC1", 0.5],
  ["CCCCCOC(=O)C1=C(C(=O)N(C(=O)CC)c2cc(SCC(=O)OC)c(Cl)cc2F)CCCC1", 0.5]
]}

Next compound, Injury of Paddy to be filled in.
Item COC(=O)C1=C(C(=O)N(C(C)=O)c2cc(SC(C)C(=O)OC)c(Cl)cc2F)CCCC1 (stereo not drawn) ; assay system paddy rice; Injury of Paddy reported as 0.5

----------
- System: rice
- assayText: Experiment 5 foliage treatment: rice
- Assay type: in vivo
- Set-up: key: 5: completely killed; 4: seriously injured; 3: considerably injured; 2: somewhat injured; 1: slightly injured; 0: not injured (normally grown)
- details: 80 g/10a, foliage spray of wettable powder suspension, evaluated 4 weeks after treatment
recordedEndpoint: Herbicidal Effect rice
When you answer, write just the number.

Examples from the recorded data:
{"columns": ["molecule", "reportedValue"],
 "data": [
  ["COCCOC(=O)C1=C(C(=O)N(C(=O)c2cccnc2)c2cc(C(=O)OC)c(Cl)cc2F)CCCC1 [compound 65]", 1],
  ["C#CCOC(=O)C1=C(C(=O)N(C(=O)c2cccnc2)c2cc(OC(C)C#C)c(Cl)cc2F)CCCC1 (stereo not shown) [compound 61]", 4],
  ["C#CC(C)Oc1cc(N(C(=O)C2=C(C(=O)OC)CCCC2)C(=O)c2cccnc2)c(Cl)cc1Cl (stereo not shown) [compound 70]", 1]
]}

// sample C#CC(C)Oc1cc(N(C(=O)C2=C(C(=O)OCCCC)CCCC2)C(=O)c2cccnc2)c(F)cc1Cl (stereo not shown) [compound 59] , its Herbicidal Effect rice was 1

// sample C#CC(C)Oc1cc(N(C(=O)C2=C(C(=O)OC(C)C)CCCC2)C(=O)c2ccc(Cl)nc2)c(F)cc1Cl (stereo not shown) [compound 68] , its Herbicidal Effect rice was 1

// sample COC(=O)CSc1cc(N(C(=O)C2=C(C(=O)OC)CCCC2)C(=O)c2cccnc2)c(F)cc1Cl [compound 63] , its Herbicidal Effect rice was 1

// sample C#CC(C)Oc1cc(N(C(=O)C2=C(C(=O)OC)CCCC2)C(=O)c2cncc(C(=O)OC)c2)c(F)cc1Cl (stereo not shown) [compound 67] , its Herbicidal Effect rice was 1

----------
- System: tamagayatsuri (small-flowered umbrellaplant, Cyperus difformis)
- assayText: Experiment 7 flooded soil treatment: tamagayatsuri
- Type: in vivo
- Set-up: key: 5: completely killed; 4: seriously injured; 3: considerably injured; 2: somewhat injured; 1: slightly injured; 0: not injured (normally grown)
- details: 12.5 g/10a, evaluated 4 weeks after treatment
recordedEndpoint: Herbicidal Effect tamagayatsuri

Examples from the recorded data:
{"columns": ["compound", "reportedValue"],
 "data": [
  ["C#CC(C)Oc1cc(N(C(=O)C2=C(C(=O)OC)CCCC2)C(=O)c2ccsc2)c(F)cc1Cl (stereo not drawn)", 5],
  ["C#CC(C)Oc1cc(N(C(=O)C2=C(C(=O)OCCOC)CCCC2)C(=O)c2cccs2)c(F)cc1Cl (stereo not drawn)", 5]
]}

// sample C#CC(C)Oc1cc(N(C(=O)C2=C(C(=O)OCCCC)CCCC2)C(=O)c2cccs2)c(F)cc1Cl (stereo not drawn) , its Herbicidal Effect tamagayatsuri was 4
